Reported growth values are given for each entry in this list.
System: NCI-H322M lung
Experiment: NCI-60 one-dose screen, 48 h (100 = growth as untreated, 0 = no growth, -100 = all killed)
Settings: 10 µM unless noted
Compounds without any hit were thinned out: in the full panel of roughly 83,000, 20% have a hit.

{"columns": ["compound", "scale_unit", "growth"],
 "data": [
  ["C#CCOc1cccc(Nc2ncnc3c(NC(=O)CCl)cccc23)c1", "%", 72.5],
  ["c1ccc2[nH]c(-c3ccc(-c4nccc5c4[nH]c4ccccc45)cc3)nc2c1", "%", 58.7],
  ["COc1cc(/C=C/c2cc(/C=C/c3ccc(O)c(OC)c3)n(C(=O)Nc3ccc(C)cc3C)n2)ccc1O", "%", 8.13],
  ["COc1cc(-c2c(-c3ccccc3)c[nH]c2C(=O)NCCCO)c(OC)c2c1OCO2", "%", 95.9],
  ["COc1ccc(-n2c(=O)n(-c3ccc(-c4nc5ccc(F)cc5s4)cc3)c(=O)c3cccnc32)cc1", "%", 102]
]}

* * *

Test system: RPMI-8226 leukemia
Assay: NCI-60 one-dose screen, 48 h (100 = growth as untreated, 0 = no growth, -100 = all killed)
Details: 10 µM unless noted
The panel holds about 83,000 compounds, 20% with a hit somewhere; the sample as a whole holds those more often.
Friendly reminder: growth below 80% is 1 (yes), at or above is 0 (no).

{"columns": ["compound", "assigned_class"],
 "data": [
  ["COc1cc(/C=N/NC(=O)c2ccc3nc(-c4ccc(Cl)cc4)[nH]c3c2)cc(OC)c1OC", "1 (yes)"],
  ["COc1cc2c(c(OC)c1OC)CCC(c1cccc(C(=O)Nc3ccccc3Br)c1)O2 (stereo not given)", "0 (no)"],
  ["c1ccc(-c2cn3nc(-c4c[nH]c5ccccc45)sc3n2)cc1", "0 (no)"],
  ["O=c1[nH]c(CN2CCN(c3ccccc3)CC2)nc2c(Br)cc(Br)cc12", "0 (no)"],
  ["COc1ccc(Nc2nccc(Nc3ccc4[nH]ncc4c3)n2)cc1", "1 (yes)"]
]}

* * *

Tested on: SF-539 CNS
Test: NCI-60 one-dose screen, 48 h
Conditions: 10 µM unless noted
Protocol: Cells are grown in 96 well plates and exposed to the test compound for 48 hours. Compounds are tested at a single concentration, which is 10^-5 M for most compounds. The reported endpoint is percent growth (GI% or GIPRCNT), where numbers from 0 - 100% represent growth inhibition, and numbers from -100% - 0 represent cell death. For example, a value of 40 represents 60% growth inhibition. A value of 0 means no net growth occurred over the course of the experiment. […]
About 83,000 compounds went through this panel and 20% of them were active in at least one assay; those are over-represented in the sample as a whole. Active and inactive are the calls of the source. Rule for the calls: active = growth percent below 10; inactive = the rest.
Outcome codes: label 1 = active, label 0 = inactive

{"columns": ["molecule", "assigned_class"],
 "data": [
  ["O=C1OCC2=C1C(c1cccc(F)c1)c1cc3c(cc1N2CCO)CCC3 (stereo not given)", "label 1"],
  ["Nc1ncc(-c2ccc3ncnc(N4CCc5ccc(Cl)cc54)c3c2)cn1", "label 1"],
  ["CN1CCN(Cc2ccc(NC(=O)c3cncc(C#Cc4cnc(N)c5ncccc45)c3)cc2Cl)CC1", "label 0"],
  ["NC(=O)[C@@H]1Cc2ccccc2CN1C(=O)c1ccc2c(c1)Cc1ccccc1-2", "label 0"],
  ["CC(CN)[C@@H]1CC[C@]2(CO)CC[C@]3(C)[C@H](CC[C@@H]4[C@@]5(C)CCC(NCCO)C(C)(C)[C@@H]5CC[C@]43C)[C@@H]12 (stereo not given in full)", "label 0"],
  ["COc1cc2c(c(OC)c1OC)C(=O)CC(c1cccc(C(=O)Nc3ccc(Br)cc3)c1)O2 (stereo not given)", "label 0"],
  ["O=C(OCC(O)(CO)C(=O)NC12CC3CC(CC(C3)C1)C2)c1ccc(Cl)cc1 (stereo not given)", "label 0"],
  ["COc1ccccc1-c1nc2ccc3[nH]ncc3c2c2c1CCCC2", "label 0"],
  ["C#CC(F)(F)[C@]1(O)CCC2C3CCC4=CC(=O)CCC4=C3[C@@H](c3ccc(N(C)C)cc3)C[C@@]21C (stereo not given in full)", "label 0"],
  ["COc1ccc(-c2ccc(-c3ccc(C(=N)N)o3)o2)cc1", "label 0"],
  ["COc1ccc(-c2cc(-c3ccc(Cl)cc3)c(C#N)c(=O)n2CCCCC(=O)NO)cc1", "label 0"],
  ["C=CCNc1nc(O)c(/C=C2\\C=Nc3ncccc32)s1", "label 1"],
  ["Cc1c2ccncc2c(C)c2c1c1ccccc1n2CCCCCC(=O)O", "label 0"],
  ["CN1CCN(CCCNC(=O)c2c3c(n4ccccc24)C(=O)c2ncccc2C3=O)CC1", "label 1"],
  ["CNC(=O)c1cc(Oc2ccc3nc(NC(=O)c4cc(C(F)(F)F)cc(C(F)(F)F)c4)sc3c2)ccn1", "label 0"],
  ["COc1nc2ccccc2cc1/C=[N+](\\[O-])c1ccccc1", "label 0"],
  ["C=C(C)Cn1c(SCC(=O)c2cccs2)nc2sc3c(c2c1=O)CCCC3", "label 0"],
  ["COC(=O)c1ccc(-n2cc(CCCOS(=O)(=O)c3ccc(F)cc3)nn2)cc1", "label 0"],
  ["O=C1Nc2ccccc2/C1=C/c1cccn1CCCCCCn1c2ccccc2c(=O)c2ccccc21", "label 0"],
  ["CC1=NN(c2cccc(Cl)c2)C(=O)/C1=C\\C=C\\c1ccccc1", "label 0"]
]}

* * *

Test system: NCI/ADR-RES ovarian
Test: NCI-60 one-dose screen, 48 h (100 = growth as untreated, 0 = no growth, -100 = all killed)
Conditions: 10 µM unless noted
Procedure: Growth inhibition of the NCI/ADR-RES human […] tumor cell line is measured as a screen for anti-cancer activity. Cells are grown in 96 well plates and exposed to the test compound for 48 hours. Compounds are tested at a single concentration, which is 10^-5 M for most compounds. The reported endpoint is percent growth (GI% or GIPRCNT), where numbers from 0 - 100% represent growth inhibition, and numbers from -100% - 0 represent cell death. For example, a value of 40 represents 60% growth inhibition. […]
This is part of a sample that, as a whole, favours compounds with a hit. Of some 83,000 tested, about 20% had one in any assay. Calls of active or inactive are those of the source. The calls were made as follows: active = growth percent below 10; inactive = the rest.
observable: growth

{"columns": ["molecule", "system_under_test", "recorded_value"],
 "data": [
  ["COc1ccc(/C=N/NC(=O)Cn2nnc3ccccc32)cc1", "NCI/ADR-RES ovarian", "104% (inactive)"],
  ["O=C(CSc1nnc(-c2ccc(Cl)c(Cl)c2)n1-c1ccccc1)Nc1ccc(C(=O)/C=C/c2ccc(Cl)cc2)cc1", "NCI/ADR-RES ovarian", "95.3% (inactive)"],
  ["O=C(Nc1cccc2c1C(=O)c1cccc(NC(=O)c3ccc(C(=O)Nc4cccc5c4C(=O)c4cccc(NC(=O)c6ccccc6)c4C5=O)cc3)c1C2=O)c1ccccc1", "NCI/ADR-RES ovarian", "101% (inactive)"],
  ["COC(=O)c1nc(-c2ccccc2)oc1S(=O)(=O)NCC(c1ccc(Cl)cc1)N1CCCCC1 (centres undefined)", "NCI/ADR-RES ovarian", "89% (inactive)"]
]}

* * *

The following molecules are shown together with reported growth values.
System: SF-539 CNS
Assay: NCI-60 one-dose screen, 48 h (100 = growth as untreated, 0 = no growth, -100 = all killed)
Conditions: 10 µM unless noted
The panel holds about 83,000 compounds, 20% with a hit somewhere; the sample as a whole holds those more often.

{"columns": ["molecule", "system_under_test", "scale_unit", "growth"],
 "data": [
  ["O=C1NCCS(=O)(=O)/C1=C\\C=C\\c1cccc(C(F)(F)F)c1", "SF-539 CNS", "%", 10.6],
  ["COc1cccc(C(=O)Nc2cccc(NC(=O)c3ccccn3)c2)c1", "SF-539 CNS", "%", 104],
  ["CN1C(=O)N(C)C2C1NN=c1s/c(=C\\c3ccccc3F)c(=O)n12 (stereo unspecified)", "SF-539 CNS", "%", -23.8],
  ["CCN(CC)CCCNc1cc(OC)cc2cccnc12", "SF-539 CNS", "%", 101],
  ["COc1ccc(CNc2c3ccccc3nc3ccccc23)cc1OC", "SF-539 CNS", "%", 15.4],
  ["CN(C)CCOc1ccc(/C(=C(/CCCCCCCCCC[P+](c2ccccc2)(c2ccccc2)c2ccccc2)c2ccccc2)c2ccccc2)cc1", "SF-539 CNS", "%", -88.9],
  ["Cc1nc2ccccc2c(/C=C/c2ccc(Br)cc2)c1C(=O)/C=C/c1ccccc1", "SF-539 CNS", "%", -62.7],
  ["COC(=O)c1cc(-c2ccc(OC)c(OC)c2)[nH]c1N/N=C/c1c(Cl)cccc1Cl", "SF-539 CNS", "%", -15.2],
  ["CN1C(=O)N(C)C2C1NN=c1s/c(=C\\c3ccc(F)cc3)c(=O)n12 (stereo unspecified)", "SF-539 CNS", "%", 29.7],
  ["CC(=O)O[C@H]1CC[C@@]2(C)C(=CC[C@@H]3[C@@H]2CC[C@]2(C)C(Cl)=C(c4nc5ccc(Cl)cn5c4NC(C)(C)C)C[C@@H]32)C1", "SF-539 CNS", "%", 97.6],
  ["COc1cc(CNC(=O)CCCC/C=C/C(C)C)ccc1OCc1cn(-c2ccc(C(F)(F)F)cc2)nn1", "SF-539 CNS", "%", 81.9],
  ["O=C(O)/C=C/c1cn(-c2ccccc2)nc1-c1ccc(F)cc1", "SF-539 CNS", "%", 92.6],
  ["Cc1nc2sc(C(=O)Nc3ccccc3)c(N)c2cc1C(O)c1ccccc1 (stereo unspecified)", "SF-539 CNS", "%", -5.44],
  ["O=C(Nc1ncc(Cc2ccc(Cl)cc2)s1)c1ccc2c(c1)OCCO2", "SF-539 CNS", "%", -4.99],
  ["C/C(=N\\NC(=O)c1ccc(C(C)(C)C)cc1)c1ccc(O)cc1O", "SF-539 CNS", "%", 14.7],
  ["CCCCC/C=C/CCC(=O)N[C@H]1[C@H](Oc2c3cc4cc2Oc2ccc(cc2Cl)[C@@H](O[C@@H]2O[C@H](CO)[C@@H](O)[C@H](O)[C@H]2NC(C)=O)[C@@H]2NC(=O)[C@H](NC(=O)[C@@H]4NC(=O)[C@H]4NC(=O)[C@@H](Cc5ccc(c(Cl)c5)O3)NC(=O)[C@@H](N)c3ccc(O)c(c3)Oc3cc(O)cc4c3)c3ccc(O)c(c3)-c3c(O[C@H]4O[C@H](CO)[C@@H](O)[C@H](O)[C@@H]4O)cc(O)cc3[C@H](C(=O)O)NC2=O)O[C@H](CO)[C@H](O)[C@@H]1O", "SF-539 CNS", "%", 110]
]}
